Sourced from patent US10131652B2

# Test system: corn (Zea mays)
# test.method.notes: Test B pre-/postemergence plant response
# Format: in vivo
# assay.context: Postemergence, 31 g ai/ha; 0 to 100 scale (0 no effect, 100 complete control)
Listed here: items and their measured Plant response rating, Corn.
recorded.endpoint: Plant response rating, Corn

>>> print(df.to_string())
                                 test_smiles            recorded_endpoint  quantitative_readout
 0  FC(F)(Cl)c1cc(-c2ccccc2Oc2ncc(Cl)cn2)no1  Plant response rating, Corn                    40
 1             Brc1cnc(Oc2ccccc2-c2ccsc2)nc1  Plant response rating, Corn                     0
 2      FC(F)c1ccc(-c2ccccc2Oc2ncc(Cl)cn2)o1  Plant response rating, Corn                     0
 3     CC(=O)c1cc(-c2ccccc2Oc2ncc(Br)cn2)no1  Plant response rating, Corn                     0
 4    Cc1cnc(Oc2ccccc2-c2cc(C(C)(F)F)on2)nc1  Plant response rating, Corn                    10
 5             Clc1cnc(Oc2ccccc2-c2ccno2)nc1  Plant response rating, Corn                     0
 6       Fc1cnc(Oc2ccccc2-c2cc(C(F)F)no2)nc1  Plant response rating, Corn                     0
 7  FC(Cl)(Cl)c1cc(-c2ccccc2Oc2ncc(Cl)cn2)no1  Plant response rating, Corn                    10
 8   CC(F)(F)c1cc(-c2ccccc2Oc2ncc(Cl)cn2)on1  Plant response rating, Corn                     0
 9  FC(F)(F)COc1cc(-c2ccccc2Oc2ncc(Cl)cn2)on1  Plant response rating, Corn                    10
10             Clc1cnc(Oc2ccccc2-c2ccns2)nc1  Plant response rating, Corn                     0
11            Clc1cnc(Oc2ccccc2-c2cnccn2)nc1  Plant response rating, Corn                     0
12         Cc1ccnc(-c2ccccc2Oc2ncc(Cl)cn2)c1  Plant response rating, Corn                     0
13       Cc1cc(-c2c(F)cccc2Oc2ncc(Br)cn2)on1  Plant response rating, Corn                     0

---

# System: dayflower (Virginia (VA) dayflower, Commelina virginica)
# test.method.notes: Test F pre-/postemergence plant response
# Type: in vivo
# assay.context: Commelina virginica, pre-emergence; 31 g ai/ha Preemergence; scale 0 to 100; read-out: Plant response rating, Dayflower, VA
# From the text: […] Treated plants and controls were maintained in a greenhouse for 14 to 21 days, after which time all species were compared to controls and visually evaluated. […]
Listed here: items and their measured pest or weed control at 31 g/ha.
recorded.endpoint: pest or weed control at 31 g/ha

>>> df
                                   molecule  result
0  FC(F)(F)c1cc(-c2ccccc2Oc2ncc(Cl)cn2)no1 [Compound 200]     50%
1  Fc1cccc(Oc2ncc(Cl)cn2)c1-c1cc(C(F)F)on1 [Compound 55]     60%
2  FC(F)c1cc(-c2ccccc2Oc2ncc(Br)cn2)no1 [Compound 62]      0%
3  Fc1cccc(Oc2ncc(Cl)cn2)c1-c1cc(C(F)F)no1 [Compound 144]     30%
